# system_under_test: BCAT2 (Homo sapiens, UniProt O15382)
# Sequence (O15382 28-392): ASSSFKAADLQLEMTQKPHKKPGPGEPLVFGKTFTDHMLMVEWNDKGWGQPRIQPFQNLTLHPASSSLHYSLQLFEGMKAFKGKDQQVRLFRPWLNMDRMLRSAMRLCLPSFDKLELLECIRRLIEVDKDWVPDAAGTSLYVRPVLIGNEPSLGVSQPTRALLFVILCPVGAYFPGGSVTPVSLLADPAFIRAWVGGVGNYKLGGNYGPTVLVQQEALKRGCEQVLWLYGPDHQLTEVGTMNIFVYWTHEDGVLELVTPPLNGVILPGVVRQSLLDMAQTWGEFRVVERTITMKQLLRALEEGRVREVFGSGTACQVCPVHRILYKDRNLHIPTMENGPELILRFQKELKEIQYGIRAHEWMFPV
# experimental_details: BCAT2 cell inhibition using engineered A549 cells (MUT KO, BCAT1 KO; 13C6-KMV formation by LC-MS/MS)
# Type: cell-based
# Parameters: expressed endogenous BCAT2; endogenous in cells; host or cells: A549 cells, MUT knockout and BCAT1 knockout
pIC50: −log10 of the molar value.
// values below are reported pIC50

Below, 5 compounds whose answers are already recorded.
>>> df
                                   compound  value_measured
0  CN(C)Cc1ccc(Cl)cc1C(=O)N[C@H]1CCC[C@@H](n2c(-c3ccccc3F)nc3cnc(-c4nc[nH]n4)cc32)C1 [Example 37]    6.00 to 6.30
1  O=C(N[C@H]1CCC[C@@H](n2c(-c3ccccc3F)nc3cnc(-c4nc[nH]n4)cc32)C1)c1cc(Cl)ccc1OC1CC1 [Example 29]          > 7.00
2  N#Cc1ccccc1-c1nc2cnc(-c3nc[nH]n3)cc2n1[C@@H]1CCC[C@H](NC(=O)c2cc(Cl)ccn2)C1 [Example 45]          > 7.00
3  CC(C)Oc1ccc(Cl)cc1C(=O)N[C@H]1CCC[C@@H](n2c(-c3ccccc3F)nc3cnc(-c4nc[nH]n4)cc32)C1 [Example 18]          > 7.00
4  O=C(N[C@H]1CCC[C@@H](n2c(-c3ccccc3F)nc3cnc(-c4nc[nH]n4)cc32)C1)c1ccc(Cl)cn1 [Example 13]          > 7.00

Please find the next compound below.
Qu. I have this compound here, O=C(N[C@H]1CCC[C@@H](n2c(-c3ccccc3OC(F)F)nc3cnc(-c4nc[nH]n4)cc32)C1)c1cc(F)ccn1 [compound 30] , and I need its recorded pIC50.
Ans. > 7.00

###

# system_under_test: BCAT2 (Homo sapiens, UniProt O15382)
# Sequence (O15382 28-392): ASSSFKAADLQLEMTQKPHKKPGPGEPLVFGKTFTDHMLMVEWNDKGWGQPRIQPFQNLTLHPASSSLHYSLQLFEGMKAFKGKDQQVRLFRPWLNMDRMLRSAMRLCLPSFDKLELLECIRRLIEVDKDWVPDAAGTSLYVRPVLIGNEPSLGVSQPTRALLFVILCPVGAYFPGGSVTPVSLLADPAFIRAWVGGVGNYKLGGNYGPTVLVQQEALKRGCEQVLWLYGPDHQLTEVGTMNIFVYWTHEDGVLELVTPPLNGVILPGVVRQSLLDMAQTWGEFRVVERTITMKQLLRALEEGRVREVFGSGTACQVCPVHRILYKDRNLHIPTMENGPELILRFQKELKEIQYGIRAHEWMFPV
# experimental_details: BCAT2 cell inhibition using engineered A549 cells (MUT KO, BCAT1 KO; 13C6-KMV formation by LC-MS/MS)
# Format: cell-based
# Parameters: expressed endogenous BCAT2; endogenous in cells; host or cells: A549 cells, MUT knockout and BCAT1 knockout
pIC50: −log10 of the molar value.
endpoint: pIC50

# annotated cases, reported pIC50 shown
                               smiles_entry  endpoint  value_measured
0  CO[C@H]1C[C@H](N2Cc3ccc(F)cc3C2=O)C[C@H](n2c(-c3ccccc3OCCO)nc3ccc(-c4ncco4)cc32)C1     pIC50    6.30 to 7.00
1  O=C(N[C@H]1CCC[C@@H](n2c(-c3ccccc3OC(F)F)nc3cnc(-c4nc[nH]n4)cc32)C1)c1cc(Cl)ccc1O     pIC50          > 7.00
2  O=C(N[C@H]1CCC[C@@H](n2c(-c3ccccc3OCCO)nc3cnc(-c4nc[nH]n4)cc32)C1)c1cc(Cl)ccc1F     pIC50    6.30 to 7.00
3  CC(C)Cc1nc2cnc(-c3nc[nH]n3)cc2n1[C@@H]1CCC[C@H](NC(=O)c2cc(Cl)ccc2OCCO)C1     pIC50    6.30 to 7.00
4  CC(C)Cc1nc2ccc(-c3ncccn3)cc2n1[C@@H]1CCC[C@H](NC(=O)c2cc(Cl)ccn2)[C@H]1O     pIC50    6.30 to 7.00

Qu. Looking for the measured pIC50 of `O=C1c2ccccc2CN1[C@H]1CCC[C@@H](n2c(-c3ccccc3F)nc3cnc(-c4nc[nH]n4)cc32)C1` , can you help?
Ans. > 7.00

Qu. Lookup `O=C1c2ccc(F)cc2C(=O)N1[C@H]1CCC[C@@H](n2c(-c3ccccc3F)nc3cnc(-c4nc[nH]n4)cc32)C1`
Ans. > 7.00
